Target: HCV polymerase 1B (Δ21 NS5B, BK) (Hepatitis C virus genotype 1b, UniProt P26663)
Construct: 20 to 50 nM Δ21 NS5B
Sequence (P26663 2420-2989, stated change not applied): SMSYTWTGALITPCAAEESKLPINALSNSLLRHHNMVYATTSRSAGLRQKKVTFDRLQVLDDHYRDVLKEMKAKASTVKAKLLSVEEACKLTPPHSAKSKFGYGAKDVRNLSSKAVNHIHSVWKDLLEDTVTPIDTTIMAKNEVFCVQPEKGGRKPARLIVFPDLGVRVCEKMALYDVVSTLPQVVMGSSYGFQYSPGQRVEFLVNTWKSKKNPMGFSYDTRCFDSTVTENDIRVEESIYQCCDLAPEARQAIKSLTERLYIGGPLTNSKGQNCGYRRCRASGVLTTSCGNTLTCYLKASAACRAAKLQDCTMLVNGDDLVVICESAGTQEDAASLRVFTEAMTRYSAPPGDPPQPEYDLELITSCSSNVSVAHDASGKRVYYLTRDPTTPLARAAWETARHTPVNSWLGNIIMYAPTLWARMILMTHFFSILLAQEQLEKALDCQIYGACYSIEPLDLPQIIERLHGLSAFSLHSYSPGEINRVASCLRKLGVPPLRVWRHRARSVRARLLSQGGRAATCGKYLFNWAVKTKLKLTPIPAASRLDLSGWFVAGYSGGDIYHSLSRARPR
Assay: biochemical

smiles_record | measured_target | IC50
CC(C)(C)c1cc(N2CCC(=O)NC2=O)cc(C(=O)Nc2ccc3ncccc3c2)c1O | HCV polymerase 1B (Δ21 NS5B, BK) (Hepatitis C virus genotype 1b, UniProt P26663) | 100 to 1000 nM
CC(C)(C)c1cc(C(=O)Nc2ccc(NS(C)(=O)=O)cc2)cc(N2CCC(=O)NC2=O)c1 | HCV polymerase 1B (Δ21 NS5B, BK) (Hepatitis C virus genotype 1b, UniProt P26663) | 10 to 100 nM
COc1c(/C=C\c2ccc(NS(C)(=O)=O)cc2)cc(N2CCC(=O)NC2=O)cc1C(C)(C)C | HCV polymerase 1B (Δ21 NS5B, BK) (Hepatitis C virus genotype 1b, UniProt P26663) | 10 to 100 nM
COCCS(=O)(=O)Nc1ccc(NC(=O)c2cc(N3CCC(=O)NC3=O)cc(C(C)(C)C)c2OC)cc1 | HCV polymerase 1B (Δ21 NS5B, BK) (Hepatitis C virus genotype 1b, UniProt P26663) | 100 to 1000 nM
COc1c(C(=O)Nc2ccc(NS(=O)(=O)CCN3CCOCC3)cc2)cc(N2CCC(=O)NC2=O)cc1C(C)(C)C | HCV polymerase 1B (Δ21 NS5B, BK) (Hepatitis C virus genotype 1b, UniProt P26663) | 100 to 1000 nM
COc1c(NC(=O)c2ccc(NS(C)(=O)=O)cc2Cl)cc(N2CCC(=O)NC2=O)cc1C(C)(C)C | HCV polymerase 1B (Δ21 NS5B, BK) (Hepatitis C virus genotype 1b, UniProt P26663) | 10 to 100 nM
COc1c(I)cc(-n2ccc(=O)[nH]c2=O)cc1C#Cc1ccc(NS(C)(=O)=O)cc1C | HCV polymerase 1B (Δ21 NS5B, BK) (Hepatitis C virus genotype 1b, UniProt P26663) | 100 to 1000 nM

====

Target: HCV polymerase 1A (Δ21 NS5B, H77) (Hepatitis C virus genotype 1a, UniProt P27958)
Construct: 20 to 50 nM Δ21 NS5B
Sequence (P27958 2421-2990, stated change not applied): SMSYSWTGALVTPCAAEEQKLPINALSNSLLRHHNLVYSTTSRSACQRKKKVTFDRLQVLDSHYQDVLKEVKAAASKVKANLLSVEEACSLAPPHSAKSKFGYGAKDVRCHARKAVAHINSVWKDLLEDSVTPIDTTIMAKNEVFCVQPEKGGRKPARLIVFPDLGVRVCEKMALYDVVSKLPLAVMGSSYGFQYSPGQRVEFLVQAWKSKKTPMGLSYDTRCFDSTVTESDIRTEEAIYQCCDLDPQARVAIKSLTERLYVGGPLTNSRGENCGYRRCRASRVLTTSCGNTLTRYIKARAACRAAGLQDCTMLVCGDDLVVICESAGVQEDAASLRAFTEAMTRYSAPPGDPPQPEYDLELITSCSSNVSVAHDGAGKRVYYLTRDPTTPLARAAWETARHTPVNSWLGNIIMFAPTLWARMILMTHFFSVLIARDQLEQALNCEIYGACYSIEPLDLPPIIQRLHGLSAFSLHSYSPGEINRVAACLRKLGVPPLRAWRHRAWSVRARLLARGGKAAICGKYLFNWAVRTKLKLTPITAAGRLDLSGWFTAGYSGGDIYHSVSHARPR
Test: biochemical
Conditions: IC50 1a
pIC50: −log10 of the molar value. Counter-ions that a name gives are not always drawn.
pIC50 overview

compound | pIC50
CC(C)(C)c1cc(N2CCC(=O)NC2=O)cc(CN2CCCC(CNS(C)(=O)=O)C2)c1O (stereo not drawn) | < 6.00
COc1c(/C=C\c2ccc(NS(C)(=O)=O)cc2)cc(N2CCC(=O)NC2=O)cc1C(C)(C)C [IA-L1-1.20] | > 8.00
CCN(CC)C(=O)C1CCCN(Cc2cc(N3CCC(=O)NC3=O)cc(C(C)(C)C)c2O)C1 (stereo not drawn) [IA-L5-1-1.7, trifluoroacetic acid salt] | < 6.00
COc1c(C#Cc2ccc(NS(C)(=O)=O)c(C(F)(F)F)c2)cc(N2CCC(=O)NC2=O)cc1C(C)(C)C | 6.00 to 7.00
COc1c(C(=O)Nc2cc(CN(C(=O)OC(C)(C)C)S(C)(=O)=O)cs2)cc(N2CCC(=O)NC2=O)cc1C(C)(C)C | 6.00 to 7.00
COc1c(C(=O)Nc2ccc(NS(C)(=O)=O)cc2C)cc(N2CCC(=O)NC2=O)cc1C(C)(C)C | 7.00 to 8.00
COc1c(-c2ccc(NC(=O)NS(C)(=O)=O)cc2)cc(-n2ccc(=O)[nH]c2=O)cc1C(C)(C)C | 7.00 to 8.00
CC(C)(C)c1cc(N2CCC(=O)NC2=O)cc(C(=O)Nc2ccc3c(c2)CS(=O)(=O)C3)c1O | < 6.00
CC(C)(C)c1cc(N2CCC(=O)NC2=O)cc(CN2CCCc3cc(NS(C)(=O)=O)ccc32)c1O | < 6.00
CNS(=O)(=O)Cc1ccc(NC(=O)c2cc(N3CCC(=O)NC3=O)cc(C(C)(C)C)c2O)cc1 | < 6.00
CC(C)(C)c1cc(N2CCC(=O)NC2=O)cc(CN2CCOCC2)c1O [IA-L5-1-1.14, 2,2,2-trifluoroacetate] | < 6.00
COC(=O)Nc1ccc(NC(=O)c2cc(N3CCC(=O)NC3=O)cc(C(C)(C)C)c2OC)cc1 | < 6.00
CC(C)(C)c1cc(N2CCC(=O)NC2=O)cc(C(=O)Nc2scc(CNS(C)(=O)=O)c2S(N)(=O)=O)c1O | 7.00 to 8.00
CC(C)(C)c1cc(N2CCC(=O)NC2=O)cc(C(=O)Nc2ccccc2)c1O | < 6.00
COc1c(C#Cc2ccc(NS(C)(=O)=O)cc2NC(C)=O)cc(-n2ccc(=O)[nH]c2=O)cc1C(C)(C)C | 7.00 to 8.00
